// reported log10 GI50 per item
Tested on: 786-0
Assay: Growth inhibition of human 786-0 cells after 48 hrs by sulforhodamine B assay
Type: functional
Details: 786-0, 48 h
Reminder: these figures are log10 of reported GI50, in µg/mL before transformation.

// known answers, use as guide
CCOC(=O)C1=C(C)NC(=S)NC1c1ccc(SC)cc1 (centres undefined) = 0.72
CCOC(=O)C1=C(C)NC(=S)N[C@H]1c1cccc(O)c1 [S-MENASTROL] = 0.60
CCOC(=O)C1=C(C)NC(=O)NC1c1ccc(SC)cc1 (centres undefined) = 0.40
CCOC(=O)C1=C(C)NC(=S)NC1c1ccc(O)c(OC)c1 (centres undefined) = 1.48
CCOC(=O)C1=C(C)NC(=S)NC1c1ccc(OC)cc1 (centres undefined) = 1.41

Sure, the documented log10 GI50 for CCOC(=O)C1=C(C)NC(=S)NC1c1ccc2c(c1)OCO2 (centres undefined) is 1.43

Sure, the documented log10 GI50 for CCOC(=O)C1=C(C)NC(=O)NC1c1ccc(O)c(OC)c1 (centres undefined) is 1.24

Sure, the documented log10 GI50 for CCOC(=O)C1=C(C)NC(=O)NC1c1ccc(F)cc1 (centres undefined) is 1.39

Sure, the documented log10 GI50 for CCOC(=O)C1=C(C)NC(=S)NC1c1ccc(O)c(O)c1 (centres undefined) is 1.45

Sure, the documented log10 GI50 for CCOC(=O)C1=C(C)NC(=O)NC1c1cccc(O)c1 (centres undefined) is 1.42

Sure, the documented log10 GI50 for CCOC(=O)C1=C(C)NC(=O)NC1c1ccc(O)c(O)c1 (centres undefined) is 1.32

Sure, the documented log10 GI50 for CCOC(=O)C1=C(C)NC(=S)NC1c1ccc(F)cc1 (centres undefined) is 1.39

Sure, the documented log10 GI50 for CCOC(=O)C1=C(C)NC(=S)NC1c1ccccc1 (centres undefined) is 1.44

Sure, the documented log10 GI50 for CCCC1NC(=S)NC(C)=C1C(=O)OCC (centres undefined) is 1.44

Sure, the documented log10 GI50 for CCOC(=O)C1=C(C)NC(=O)NC1c1ccc(OC)cc1 (centres undefined) is 1.39

Sure, the documented log10 GI50 for CCOC(=O)C1=C(C)NC(=S)NC1c1ccc(O)cc1 (centres undefined) is 1.44

Sure, the documented log10 GI50 for CCOC(=O)C1=C(C)NC(=O)NC1c1ccc(O)cc1 (centres undefined) is 1.41

Sure, the documented log10 GI50 for CCOC(=O)C1=C(C)NC(=S)NC1C1CCCCC1 (centres undefined) is 0.62

Sure, the documented log10 GI50 for CCOC(=O)C1=C(C)NC(=O)NC1c1ccc2c(c1)OCO2 (centres undefined) is 1.42

Sure, the documented log10 GI50 for CCOC(=O)C1=C(C)NC(=S)NC1c1cc(OC)c(O)c(OC)c1 (centres undefined) is 1.13

Sure, the documented log10 GI50 for CCOC(=O)C1=C(C)NC(=S)NC1c1cccc(OC)c1 (centres undefined) is 1.40

Sure, the documented log10 GI50 for COc1cccc2c1C(=O)c1c(O)c3c(c(O)c1C2=O)C[C@@](O)(C(=O)CO)C[C@@H]3O[C@H]1C[C@H](N)[C@H](O)[C@H](C)O1 [DOXORUBICIN] is -0.74
